tested on: wheat (Triticum aestivum); experiment: Test B pre-/postemergence plant response; assay type: in vivo; settings: Postemergence, 16 g ai/ha; scale 0 to 100
// reported Plant response rating, Wheat per item
assayMetric: Plant response rating, Wheat

Cc1cc(-c2ccc(Cl)cc2)nn1-c1c(OC(=O)c2cccc(Cl)c2)cnn(C)c1=O: 30
CCc1cc(-c2ccc(C(F)(F)F)cc2)nn1-c1c(OC(=O)OC(C)C)cnn(C)c1=O: 90
CCOC(=O)Oc1cnn(C)c(=O)c1-n1nc(-c2ccc(Cl)cc2)cc1C: 55
CCCc1cc(-c2ccc(Cl)cc2)nn1-c1c(O)cnn(C)c1=O: 70

---

system: Italian ryegrass (Lolium multiflorum); assay: Test C pre-/postemergence plant response; assay type: in vivo; details: Preemergence, 8 g ai/ha; scale 0 to 100 (0 no effect, 100 complete control)
assayMetric: Plant response rating, Ryegrass, Italian

Cc1cc(-c2ccc(C(F)(F)F)c(F)c2)nn1-c1c(O)c(C(F)(F)F)nn(C)c1=O: 90
Cc1cc(-c2ccc(Cl)cc2)nn1-c1c(OC(=O)c2cccc(Cl)c2)cnn(C)c1=O: 0
Cc1cc(-c2ccc(Cl)cc2)nn1-c1c(OS(=O)(=O)c2cccc3ccccc23)cnn(C)c1=O: 0
CCCc1cc(-c2ccc(Cl)cc2)nn1-c1c(O)cnn(C)c1=O: 60
Cc1cc(-c2ccc(Cl)cc2)nn1-c1c(OS(=O)(=O)c2ccccc2)cnn(C)c1=O: 0

---

test system: Italian ryegrass (Lolium multiflorum); assay: Test B pre-/postemergence plant response; assay type: in vivo; conditions: Preemergence; 8 g ai/ha; scale 0 to 100
// reported Ryegrass, Italian plant response rating per item
assayMetric: Ryegrass, Italian plant response rating

CCCc1cc(-c2ccc(Cl)cc2)nn1-c1c(O)cnn(C)c1=O [Compound 76]: 75
Cc1cc(-c2ccc(Cl)cc2)nn1-c1c(OC(=O)CC(C)C)cnn(C)c1=O [Compound 37]: 45
Cc1cc(-c2ccc(Cl)cc2)nn1-c1c(OC(=O)c2ccccc2Cl)cnn(C)c1=O [Compound 38]: 30
CCCC(=O)Oc1cnn(C)c(=O)c1-n1nc(-c2ccc(Cl)cc2)cc1C [Compound 56]: 60

---

tested on: wheat (Triticum aestivum); experiment: Test B pre-/postemergence plant response; type: in vivo; settings: Postemergence, 62 g ai/ha; scale 0 to 100, 0 no effect, 100 complete control
assayMetric: Plant response rating, Wheat

Cc1cc(-c2ccc(Cl)cc2)nn1-c1c(OC(=O)c2ccccc2Cl)cnn(C)c1=O: 95
CCc1cc(-c2ccc(Br)cc2)nn1-c1c(O)c(C)nn(C)c1=O: 95
Cc1cc(-c2ccc(Cl)cc2)nn1-c1c(OS(=O)(=O)c2ccccc2)cnn(C)c1=O: 85
Cc1nn(C)c(=O)c(-n2nc(-c3ccc(Cl)cc3)cc2Cl)c1O: 50
CCCC(=O)Oc1cnn(C)c(=O)c1-n1nc(-c2ccc(Cl)cc2)cc1C: 90
CCc1cc(-c2ccc(Br)cc2)nn1-c1c(O)cnn(CC(F)(F)F)c1=O: 95
Cc1cc(-c2ccc(C(F)(F)F)c(F)c2)nn1-c1c(O)c(C(F)(F)F)nn(C)c1=O: 95

---

system: common ragweed (Ambrosia elation); assay: Test B pre-/postemergence plant response; format: in vivo; conditions: Preemergence, 62 g ai/ha; scale 0 to 100
assayMetric: Plant response rating, Ragweed

Cc1cc(-c2ccc(Cl)cc2)nn1-c1c(OS(=O)(=O)C(C)C)cnn(C)c1=O: 0
CCc1cc(-c2ccc(C(F)(F)F)cc2)nn1-c1c(O)c(C)nn(C)c1=O: 0
Cc1cc(-c2ccc(Cl)cc2)nn1-c1c(OC(=O)c2cccc(Cl)c2)cnn(C)c1=O: 0
Cc1cc(-c2ccc(Cl)cc2)nn1-c1c(OS(=O)(=O)c2cccc3ccccc23)cnn(C)c1=O: 0

All values here come from patent US20100267561A1.
